Where do the numbers come from? From patent US8552013B2.

pIC50 overview
Test system: promyelocytic HL-60 leukemia
test-details: Calcein AM cytotoxicity, HL60
Type: cell-based, human
measurement-context: Homo sapiens, HL-60, 72 h, read-out: IC 50, HL60
pIC50: −log10 of the molar value.

// worked examples, pIC50 included
Nc1ncnc2nc[nH]c12 [Adenine] ... < 3.78
Fc1ccc(CNc2ncnc3nc[nH]c23)c(F)c1 [6-(2,4-difluorobenzylamino)purine] ... < 3.78
Ic1cccc(CNc2ncnc3nc[nH]c23)c1 [6-(3-iodobenzylamino)purine] ... 3.88
Cc1cccc(CNc2ncnc3nc[nH]c23)c1 [6-(3-methylbenzylamino)purine] ... < 3.78
Fc1ccc(CNc2ncnc3nc[nH]c23)c(F)c1F [6-(2,3,4-trifluorobenzylamino)purine] ... < 3.78

Enquiry: GET /values?readout=pIC50&item= O=[N+]([O-])c1ccc(CNc2ncnc3nc[nH]c23)cc1 [6-(4-nitrobenzylamino)purine]
Return: < 3.78

Enquiry: GET /values?readout=pIC50&item= Clc1ccc(CNc2ncnc3nc[nH]c23)cc1 [6-(4-chlorobenzylamino)purine]
Return: < 3.78

Enquiry: GET /values?readout=pIC50&item= COc1cc(OC)c(CNc2ncnc3nc[nH]c23)c(OC)c1 [6-(2,4,6-trimethoxybenzylamino)purine]
Return: 3.81
